// data source = patent US20220033460A1

molecular target: DRB01*04:04; conditions: chains peptide; modification not given
pIC50: −log10 of the molar value.

Binder	pIC50
GAVILRGHLRIAGHHLGR [SEQ ID NO 312]	5.02
